Where do the numbers come from? From ChEMBL document CHEMBL1201862.

# Tested on: UACC-257
# Test: NCI tumour cell line growth inhibition, 48 h
Calls of active or inactive are those of the source. No stated cut-off is given here; in the data, active = GI50 up to about 1.1 µM and inactive = higher.
Outcome (select one): active, inactive

What call does the record list for `CS/C(c1ccccc1)=[N+](\[O-])Cc1ccccc1` ?
inactive

Give the logged outcome of this assay for the following compound: COC1CC(N)(c2ccccc2)C(O)C(C)O1 (stereo not given)
inactive

Tell me the recorded outcome of this test for `CCOC(=O)c1cccn1S(=O)(=O)c1cc(Cl)ccc1NC(=O)CC` .
inactive

// param item: `O=C1/C(=C/c2ccc(O)c([N+](=O)[O-])c2)CCC/C1=C\c1ccc(O)c([N+](=O)[O-])c1` ; yields the recorded call
inactive

Write down the call the test reported for this compound. Item: `CC(=O)Nc1oc(C)nc1C#N`
inactive

Query: recorded result category for `CC1=C(C(=O)Nc2ccc([N+](=O)[O-])cc2)C(c2ccco2)C(C(=O)Nc2ccc([N+](=O)[O-])cc2)=C(C)N1` in this test
inactive

Dear all, I need the recorded test outcome for `CC1=CC(=O)/C(=C/NC(=S)c2ccccc2)C(=O)O1` , thank you.
inactive

For this compound, state the assay outcome: CC(=O)Nc1cc(C(=O)Nc2cc(C(=O)N3CC(CCl)c4c3cc(N)c3ccccc43)nn2C)nn1C (stereo not given)
active

Status in this test for `CC(C)N(C(=O)C1(C)CC1)C(C)C` ?
inactive

What call does the record list for CC(C)CN(CC(C)C)C(=O)C1CCCC[C@@H]1C(=O)O (stereo not given in full) ?
inactive

Just curious, what result did CNC(=O)OC1/C(C)=C\C(C)C(O)C(OC)CC(C)CC2=C(OC)C(=O)C=C(C2=O)N(C)C(=O)/C(C)=C/C=C\C1OC (stereo not given) get here?
inactive

Please share the test call associated with `CCCC[C@H]1[C@@H](OCOc2ccccc2)COC(=O)N1[C@H](C)c1ccccc1` .
inactive

Would you mind telling me which call this test gave `CCOC(=O)/C(C#N)=N\Nc1ccc(-n2c(C)nc3ccccc3c2=O)cc1` ?
inactive

// return assay outcome for Cc1cccc(N2C(=O)C3c4[nH]c5ccc(C)cc5c4C4CCC(C(C)(C)C)CC4C3C2=O)c1 (stereo not given)
inactive

Just curious, what result did C[C@@]1(Br)C[C@@](C)(Cl)[C@@H](Br)CC1/C=C/Cl (stereo not given in full) get here?
inactive

Tell me the recorded outcome of this test for `O/N=C\c1c(O)ccc2ccccc12` .
inactive

Any idea what this test logged for `COCN1C(=O)[C@@H]2C[C@@H](O)CN2C(=O)c2ccccc21` ?
inactive

GET /call?item= COc1cc2c3c(c1OC)-c1c(ccc4c1OCO4)CC3(C#N)N(C(=O)c1ccccc1)CC2 (stereo not given) returns the recorded outcome of this test.
inactive

Hi team, can someone confirm the assay call for CC12OC3(C(O)C1O)C(C(=O)O[C@H]3CO[Si](C)(C)C(C)(C)C)C2S(=O)(=O)c1ccccc1 (stereo not given in full) ?
inactive

// return assay outcome for O=C1C(Cl)C(c2cccc(Cl)c2)N1c1ccc(-n2c(S)nc3ccccc3c2=O)cc1 (stereo not given)
inactive
